target: T1, human GFRα3 expressed with a C-terminal myc-myc-hexahistidine tag (human, UniProt O60609 32-374, biotinylated (sites not given) in ELISA format 2 and in the Octet cross-competition; not in SPR); test: SPR, Ab captured, 25C
T1 construct: also called hGFRα3-mmh; hGFRα3-mmH
T1 sequence (O60609 other isoform, or with tags, fused parts or gaps limits assumed): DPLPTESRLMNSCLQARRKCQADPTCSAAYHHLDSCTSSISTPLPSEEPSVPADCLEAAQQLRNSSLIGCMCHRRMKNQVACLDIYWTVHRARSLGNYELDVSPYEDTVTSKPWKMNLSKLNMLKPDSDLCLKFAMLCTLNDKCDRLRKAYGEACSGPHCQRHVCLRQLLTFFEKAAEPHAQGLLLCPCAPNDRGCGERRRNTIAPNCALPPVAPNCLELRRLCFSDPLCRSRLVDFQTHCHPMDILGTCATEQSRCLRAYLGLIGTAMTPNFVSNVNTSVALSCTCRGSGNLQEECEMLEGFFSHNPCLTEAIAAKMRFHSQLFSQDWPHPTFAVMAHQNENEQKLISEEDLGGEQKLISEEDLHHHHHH
Text: […]
Readout kind: t1/2 (min)
Give the quantity in min, number only.

>  <Binder>
H4H2342P (antibody, human IgG4, V domains shown, human IgG4 Fc (H4H)) VH: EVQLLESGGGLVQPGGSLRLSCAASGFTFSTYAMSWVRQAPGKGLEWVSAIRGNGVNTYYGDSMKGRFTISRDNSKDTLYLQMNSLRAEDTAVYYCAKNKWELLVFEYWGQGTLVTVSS VL: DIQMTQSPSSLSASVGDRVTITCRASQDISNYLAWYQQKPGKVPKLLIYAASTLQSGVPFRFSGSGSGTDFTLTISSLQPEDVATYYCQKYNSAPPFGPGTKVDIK

>  <t1/2 [min]>
57

$$$$
>  <Binder>
H1M2236N (antibody, V domains shown, chimeric, human variable and mouse constant domains (H1M)) VH: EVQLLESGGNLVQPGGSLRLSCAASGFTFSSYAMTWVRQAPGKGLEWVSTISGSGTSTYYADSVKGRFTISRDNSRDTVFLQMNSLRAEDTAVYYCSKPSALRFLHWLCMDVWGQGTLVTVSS VL: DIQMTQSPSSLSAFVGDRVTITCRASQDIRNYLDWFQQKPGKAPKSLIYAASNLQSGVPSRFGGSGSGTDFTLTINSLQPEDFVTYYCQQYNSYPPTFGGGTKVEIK

>  <t1/2 [min]>
56

$$$$

Problem: Returns the measured t1/2 for the input binder. Input: H4H2345S (antibody, human IgG4, V domains shown, human IgG4 Fc (H4H)) VH: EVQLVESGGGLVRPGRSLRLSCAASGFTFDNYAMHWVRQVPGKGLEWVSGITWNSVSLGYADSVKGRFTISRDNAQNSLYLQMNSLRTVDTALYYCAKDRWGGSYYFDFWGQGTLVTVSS VL: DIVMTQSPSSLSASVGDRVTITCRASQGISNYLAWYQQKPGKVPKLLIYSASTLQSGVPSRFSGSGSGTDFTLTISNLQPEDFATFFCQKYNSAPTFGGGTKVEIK
Solution: 4
